measurement_target: Serotonin Transporter (SERT) (Rattus norvegicus, UniProt P31652)
Construct: synaptosomes were prepared from whole brain minus striatum and cerebellum for the NET and SERT assays; from tissue; host or cells: rat whole brain minus striatum and cerebellum, synaptosomes
Sequence (P31652 whole entry): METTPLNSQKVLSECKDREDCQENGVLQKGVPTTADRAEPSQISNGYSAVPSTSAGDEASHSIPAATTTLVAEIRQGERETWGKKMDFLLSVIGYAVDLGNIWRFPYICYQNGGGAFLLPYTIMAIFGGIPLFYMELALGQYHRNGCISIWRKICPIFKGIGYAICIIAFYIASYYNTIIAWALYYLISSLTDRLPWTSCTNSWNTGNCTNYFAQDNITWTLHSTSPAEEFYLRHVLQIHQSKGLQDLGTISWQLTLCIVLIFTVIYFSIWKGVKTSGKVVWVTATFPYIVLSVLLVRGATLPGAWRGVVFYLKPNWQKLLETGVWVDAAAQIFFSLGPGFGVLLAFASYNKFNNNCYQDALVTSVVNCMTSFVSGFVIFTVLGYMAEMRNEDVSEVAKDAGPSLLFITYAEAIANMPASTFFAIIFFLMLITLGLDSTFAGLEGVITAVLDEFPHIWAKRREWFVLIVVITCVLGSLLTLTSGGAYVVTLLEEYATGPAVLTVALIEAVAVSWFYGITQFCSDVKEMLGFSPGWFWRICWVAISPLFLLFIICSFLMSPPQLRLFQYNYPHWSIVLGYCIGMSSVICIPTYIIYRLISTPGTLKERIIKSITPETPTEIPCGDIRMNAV
assay_protocol: SERT release assay, rat brain synaptosomes
Type: biochemical
For each record, write down the corresponding potency for releasing 5-HT relative to DA (SERT/DAT selectivity).
Express the result in fold but write the number alone.

Incoming: State the recorded potency for releasing 5-HT relative to DA (SERT/DAT selectivity) for this entry: CC(N)C/C=C\c1ccccc1 (racemic) [compound 8, (3Z)-1-Methyl-4-phenyl-but-3-enylamine]
Outgoing: 1.4

Incoming: State the recorded potency for releasing 5-HT relative to DA (SERT/DAT selectivity) for this entry: C[C@@H](N)C/C=C\c1ccccc1 [R-8]
Outgoing: 1.2

Incoming: State the recorded potency for releasing 5-HT relative to DA (SERT/DAT selectivity) for this entry: C[C@H](N)C/C=C/c1ccccc1 [S-6]
Outgoing: 5

* * *

measurement_target: human 5-HT2A receptor (Homo sapiens)
Construct: expressed in transfected cells
assay_protocol: 5-HT2A calcium mobilization assay in HEK293 cells (agonist activity)
Format: cell-based
measurement_setup: HEK293; calcium mobilization, efficacy
experimental_endpoint: Emax (%)
Express the result in % but write the number alone.

Incoming: State the recorded Emax for this entry: CC(N)C/C=C\c1ccccc1 (racemic)
Outgoing: 90

Incoming: State the recorded Emax for this entry: C[C@H](N)C/C=C\c1ccccc1
Outgoing: 102

* * *

measurement_target: human 5-HT2A receptor (Homo sapiens)
Construct: expressed in transfected cells
assay_protocol: 5-HT2A calcium mobilization assay in HEK293 cells (agonist activity)
Type: cell-based
measurement_setup: calcium mobilization, agonist, HEK293; read-out: 5-HT2A EC50, (nM ± SEM)
Description: BAT activity was measured using synaptosomes prepared from rat brain homogenates according to the protocol developed by Rothman and co-workers (Rothman, et al., Eur. J. Pharmacol. 2002, 447(1), 51). Compounds were first screened in uptake inhibition and release assays to determine the exact mode of drug action. […] HEK293 cells stably expressing the human 5-HT2A receptor were used. […] After the pre-treatment incubation period, the plate was read with a FlexStation® II (Molecular Devices). […]
For each record, write down the corresponding EC50.
Express the result in nM but write the number alone.

Incoming: Find EC50 (human 5-HT2A receptor (Homo sapiens)) for the entry CC(N)C/C=C\c1ccccc1 (racemic) [compound 8, (3Z)-1-Methyl-4-phenyl-but-3-enylamine]
Outgoing: 1860

Incoming: Find EC50 (human 5-HT2A receptor (Homo sapiens)) for the entry C[C@H](N)CC#Cc1ccccc1 [S-4, (1S)-1-Methyl-4-phenyl-but-3-ynylamine]
Outgoing: 4950

Incoming: Find EC50 (human 5-HT2A receptor (Homo sapiens)) for the entry CC(N)C/C=C/c1ccccc1 (racemic) [compound 6, (3E)-1-Methyl-4-phenyl-but-3-enylamine]
Outgoing: 5620

Incoming: Find EC50 (human 5-HT2A receptor (Homo sapiens)) for the entry C[C@H](N)C/C=C\c1ccccc1 [S-8]
Outgoing: 1600

* * *

measurement_target: human 5-HT2A receptor (Homo sapiens, UniProt P28223)
Construct: expressed in transfected cells
Sequence (P28223 whole entry): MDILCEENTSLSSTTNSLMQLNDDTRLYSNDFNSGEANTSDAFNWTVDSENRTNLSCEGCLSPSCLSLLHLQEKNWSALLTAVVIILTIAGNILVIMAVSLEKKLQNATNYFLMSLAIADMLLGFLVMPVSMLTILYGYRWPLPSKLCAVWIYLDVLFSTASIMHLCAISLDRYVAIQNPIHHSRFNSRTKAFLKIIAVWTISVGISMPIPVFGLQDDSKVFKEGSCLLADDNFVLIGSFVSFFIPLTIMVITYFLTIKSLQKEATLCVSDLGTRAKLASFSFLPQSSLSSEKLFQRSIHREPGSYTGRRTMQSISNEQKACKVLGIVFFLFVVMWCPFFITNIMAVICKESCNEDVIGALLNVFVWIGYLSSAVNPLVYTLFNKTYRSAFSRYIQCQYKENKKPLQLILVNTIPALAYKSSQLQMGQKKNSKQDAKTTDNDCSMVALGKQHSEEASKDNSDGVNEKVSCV
assay_protocol: 5-HT2A calcium mobilization assay in HEK293 cells (agonist activity)
Type: cell-based
experimental_endpoint: EC50

Incoming: State the recorded EC50 for this entry: C[C@H](N)Cc1ccccc1 [compound 1, S(+)-amphetamine, reference compound]
Outgoing: > 10 µM

* * *

measurement_target: Dopamine Transporter (DAT) (Rattus norvegicus, UniProt P23977)
Construct: Synaptosomes were prepared from rat striatum for the DAT assays; from tissue; host or cells: rat striatum synaptosomes
Sequence (P23977 whole entry): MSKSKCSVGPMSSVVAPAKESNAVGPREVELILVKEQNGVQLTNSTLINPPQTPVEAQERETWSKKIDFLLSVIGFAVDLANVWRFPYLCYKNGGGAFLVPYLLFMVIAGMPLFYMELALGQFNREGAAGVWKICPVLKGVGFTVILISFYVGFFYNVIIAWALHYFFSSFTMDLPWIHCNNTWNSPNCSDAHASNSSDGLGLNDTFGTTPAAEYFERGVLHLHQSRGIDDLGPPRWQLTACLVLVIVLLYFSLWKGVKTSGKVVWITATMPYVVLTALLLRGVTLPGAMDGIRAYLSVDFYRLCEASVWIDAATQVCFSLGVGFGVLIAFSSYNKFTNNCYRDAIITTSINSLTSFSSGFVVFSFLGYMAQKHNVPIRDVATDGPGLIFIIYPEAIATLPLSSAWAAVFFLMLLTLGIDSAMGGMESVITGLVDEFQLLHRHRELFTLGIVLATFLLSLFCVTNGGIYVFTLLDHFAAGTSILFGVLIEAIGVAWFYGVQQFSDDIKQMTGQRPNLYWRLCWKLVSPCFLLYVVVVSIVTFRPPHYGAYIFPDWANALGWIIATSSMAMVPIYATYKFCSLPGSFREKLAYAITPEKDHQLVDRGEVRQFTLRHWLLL
assay_protocol: DAT release assay, rat brain synaptosomes
Format: biochemical
measurement_setup: release of [3H]MPP+ from rat striatum synaptosomes; mean±SD (n=3)
For each record, write down the corresponding EC50.
Express the result in nM but write the number alone.

Incoming: State the recorded EC50 for this entry: CC(N)C/C=C\c1ccccc1 (racemic) [compound 8, (3Z)-1-Methyl-4-phenyl-but-3-enylamine]
Outgoing: 900

Incoming: State the recorded EC50 for this entry: CC(N)CC#Cc1ccccc1 (racemic) [compound 4, 1-Methyl-4-phenyl-but-3-ynylamine]
Outgoing: 997

Incoming: State the recorded EC50 for this entry: C[C@H](N)C/C=C\c1ccccc1 [S-8]
Outgoing: 304

Incoming: State the recorded EC50 for this entry: C[C@@H](N)C/C=C/c1ccccc1 [R-6]
Outgoing: 540

Incoming: State the recorded EC50 for this entry: CC(N)C/C=C/c1ccccc1 (racemic) [compound 6, (3E)-1-Methyl-4-phenyl-but-3-enylamine]
Outgoing: 272

Incoming: State the recorded EC50 for this entry: C[C@H](N)CC#Cc1ccccc1 [S-4, (1S)-1-Methyl-4-phenyl-but-3-ynylamine]
Outgoing: 443

Incoming: State the recorded EC50 for this entry: C[C@H](N)C/C=C/c1ccccc1 [S-6]
Outgoing: 206

Incoming: State the recorded EC50 for this entry: C[C@@H](N)C/C=C\c1ccccc1 [R-8]
Outgoing: 1420

Incoming: State the recorded EC50 for this entry: CC(N)/C=C/c1ccccc1 (centres unmarked) [compound 10, (2E)-1-Methyl-3-phenyl-prop-2-enylamine]
Outgoing: 666

Incoming: State the recorded EC50 for this entry: C[C@@H](N)CC#Cc1ccccc1 [R-4, (1R)-1-Methyl-4-phenyl-but-3-ynylamine]
Outgoing: 660

Incoming: State the recorded EC50 for this entry: CC(N)/C=C\c1ccccc1 (centres unmarked) [compound 11, (2Z)-1-Methyl-3-phenyl-prop-2-enylamine]
Outgoing: 1110

* * *

measurement_target: Serotonin Transporter (SERT) (Rattus norvegicus)
Construct: synaptosomes were prepared from whole brain minus striatum and cerebellum for the NET and SERT assays; from tissue; host or cells: rat whole brain minus striatum and cerebellum, synaptosomes
assay_protocol: SERT release assay, rat brain synaptosomes
Assay type: biochemical
measurement_setup: release of [3H]5-HT from rat brain synaptosomes; mean±SD (n=3)
For each record, write down the corresponding log10 of EC50.
The common logarithm of EC50 in nM is what is listed.

Incoming: State the recorded log10 of EC50 for this entry: C[C@H](N)C/C=C\c1ccccc1
Outgoing: 2.94

Incoming: State the recorded log10 of EC50 for this entry: C[C@H](N)CC#Cc1ccccc1
Outgoing: 2.88

Incoming: State the recorded log10 of EC50 for this entry: C[C@@H](N)C/C=C/c1ccccc1
Outgoing: 2.04

Incoming: State the recorded log10 of EC50 for this entry: C[C@H](N)C/C=C/c1ccccc1
Outgoing: 1.60

Incoming: State the recorded log10 of EC50 for this entry: C[C@@H](N)CC#Cc1ccccc1
Outgoing: 2.46

Incoming: State the recorded log10 of EC50 for this entry: CC(N)C/C=C/c1ccccc1 (racemic)
Outgoing: 1.73

Incoming: State the recorded log10 of EC50 for this entry: C[C@@H](N)C/C=C\c1ccccc1
Outgoing: 3.06

Incoming: State the recorded log10 of EC50 for this entry: CC(N)CC#Cc1ccccc1 (racemic)
Outgoing: 2.58

Incoming: State the recorded log10 of EC50 for this entry: CC(N)C/C=C\c1ccccc1 (racemic)
Outgoing: 2.81

* * *

measurement_target: 5-HT2B (Homo sapiens, UniProt P41595)
Construct: expressed in transfected cells
Sequence (P41595 whole entry): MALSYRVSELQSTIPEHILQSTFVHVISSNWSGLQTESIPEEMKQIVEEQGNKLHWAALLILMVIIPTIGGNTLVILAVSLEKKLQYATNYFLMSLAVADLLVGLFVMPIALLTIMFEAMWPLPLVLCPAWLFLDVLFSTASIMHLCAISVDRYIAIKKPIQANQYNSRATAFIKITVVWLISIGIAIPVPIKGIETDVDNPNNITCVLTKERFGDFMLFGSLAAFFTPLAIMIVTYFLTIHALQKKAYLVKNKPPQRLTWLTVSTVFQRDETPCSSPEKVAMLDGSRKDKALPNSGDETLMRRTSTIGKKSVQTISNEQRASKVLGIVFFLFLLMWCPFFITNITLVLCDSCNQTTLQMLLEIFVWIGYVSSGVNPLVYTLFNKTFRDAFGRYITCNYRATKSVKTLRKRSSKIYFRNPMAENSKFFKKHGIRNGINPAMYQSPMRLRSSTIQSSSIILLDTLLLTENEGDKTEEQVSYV
assay_protocol: 5-HT2B calcium mobilization assay in HEK293 cells (agonist activity)
Assay type: cell-based
pEC50: −log10 of the molar value.
experimental_endpoint: pEC50

Incoming: State the recorded pEC50 for this entry: C[C@H](N)Cc1ccccc1 [compound 1, S(+)-amphetamine, reference compound]
Outgoing: < 5.00

* * *

Counter-ions that a name gives are not always drawn.
For each record, write down the corresponding melting point.

Incoming: State the recorded melting point for this entry: C[C@H](N)C/C=C\c1ccccc1 (as salt: hydrochloride)
Outgoing: 83 to 84 °C

Incoming: State the recorded melting point for this entry: CC(N)C/C=C/c1ccccc1 (racemic) (as salt: hydrochloride)
Outgoing: 147 to 148 °C

Incoming: State the recorded melting point for this entry: C[C@@H](N)C/C=C\c1ccccc1 (as salt: hydrochloride)
Outgoing: 83 to 84 °C

Incoming: State the recorded melting point for this entry: C[C@H](N)C/C=C/c1ccccc1 (as salt: hydrochloride)
Outgoing: 172 to 173 °C

Incoming: State the recorded melting point for this entry: C[C@@H](N)CC#Cc1ccccc1 (as salt: hydrochloride)
Outgoing: 143 to 144 °C

Incoming: State the recorded melting point for this entry: CC(N)/C=C\c1ccccc1 (centres unmarked) (as salt: hydrochloride)
Outgoing: 149 to 151 °C

Incoming: State the recorded melting point for this entry: C[C@@H](N)C/C=C/c1ccccc1 (as salt: hydrochloride)
Outgoing: 172 to 174 °C

Incoming: State the recorded melting point for this entry: CC(N)C/C=C\c1ccccc1 (racemic) (as salt: hydrochloride)
Outgoing: 115 to 117 °C

Incoming: State the recorded melting point for this entry: C[C@H](N)CC#Cc1ccccc1 (as salt: hydrochloride)
Outgoing: 141 to 142 °C

Incoming: State the recorded melting point for this entry: CC(N)CC#Cc1ccccc1 (racemic) (as salt: hydrochloride)
Outgoing: 131 to 132 °C

Incoming: State the recorded melting point for this entry: CC(N)/C=C/c1ccccc1 (centres unmarked) (as salt: hydrochloride)
Outgoing: 151 to 152 °C
